System: S. pneumoniae
Assay: Kill or inhibit growth/proliferation; morphology, biofilm and growth disruption (Tables 5, 6); note: test concentration or dose not given here
Assay type: cell-based, Streptococcus pneumoniae
Design: key: A: Peptide aggregates; B: Less hyphal formation; Clumps; Diffuse clumps and small polyps; F: Diffuse growth; H: Thin; I: Growth inhibition; Microcolony formation; Rippled; Small polyps; Thick; W: Halo formation on top, microlonies on bottom
Ends that are not written are not given here.
Measured property: Organism, effect

1. PF-528: peptide having multiple activities (chain 1 LVDVVVLIRRHLPKSCS-NH2; chain 2 LVDVVVLIRRHLPKSCS-NH2; cysteine pairing not given here) :: S. pneumoniae (R)
2. PF-516: peptide having multiple activities (ASKQASKQASKQASKQ; Peptide with targeting and/or antimicrobial activity) :: S. pneumoniae (H)
3. PF-453: peptide having multiple activities (chain 1 IIQDIAHAFGY; chain 2 IIQDIAHAFGY; Peptide with targeting and/or antimicrobial activity) :: S. pneumoniae (C)
4. PF-459: peptide having multiple activities (chain 1 EKRMSFNENQSHRPLL; chain 2 EKRMSFNENQSHRPLL; Peptide with targeting and/or antimicrobial activity) :: S. pneumoniae (H)
5. KTPNDKIHKTIIIKHIIL [PF-533] :: S. pneumoniae (C)
6. PF-553: peptide having multiple activities (chain 1 LTIVGNALQQKNQKLLLNQKKITSLG; chain 2 LTIVGNALQQKNQKLLLNQKKITSLG; Peptide with targeting and/or antimicrobial activity) :: S. pneumoniae (R)
7. SFMPEIQKNTIPTQMK [PF-512] :: S. pneumoniae (H)
8. PF-534 (KYFHLFYHNIIHYSKQHLSLKVDFKN; Peptide with targeting and/or antimicrobial activity) :: S. pneumoniae (R)
9. PF-393: peptide having multiple activities (chain 1 DLVQSILSEFKKSG; chain 2 DLVQSILSEFKKSG; Peptide with targeting and/or antimicrobial activity) :: S. pneumoniae (R)

---

Tested on: MRSA
Assay: Kill or inhibit growth/proliferation; morphology, biofilm and growth disruption (Tables 5, 6); note: test concentration or dose not given here
Format: cell-based, Methicillin-resistant Staphylococcus aureus
Design: key: A: Peptide aggregates; B: Less hyphal formation; Clumps; Diffuse clumps and small polyps; F: Diffuse growth; H: Thin; I: Growth inhibition; Microcolony formation; Rippled; Small polyps; Thick; W: Halo formation on top, microlonies on bottom
Measured property: Organism, effect

1. PF-642: peptide having multiple activities (chain 1 FTTPMIGIPAGLLGGSYYLKRREEKGK; chain 2 FTTPMIGIPAGLLGGSYYLKRREEKGK; Peptide with targeting and/or antimicrobial activity) :: MRSA (M)
2. PF-145: peptide having multiple activities (GIVLTGRAGLVSGACSMALGVGLG; Peptide with targeting and/or antimicrobial activity) :: MRSA (M)

---

System: microorganisms (e.g., bacteria, yeasts, fungi)
Experiment: Targeting peptide binding to target microorganisms (Table 3)
Conditions: peptide binding in aqueous buffers varied by peptide solubility; preferably 1x PBS
Measured property: Target(s) (microorganisms bound by the targeting peptide)

1) PF-601: peptide having multiple activities (YRVTVKALE; Peptide with targeting and/or antimicrobial activity) :: C. jeikeium
2) PF-678 (RDRRWTRRDMYDWLESARV; Peptide with targeting and/or antimicrobial activity) :: Mycobacteria spp
3) PF-613: peptide having multiple activities (ADEFAKL; Peptide with targeting and/or antimicrobial activity) :: C. jeikeium
4) PF-663 (chain 1 ATLIPRKA; chain 2 ATLIPRKA; Peptide with targeting and/or antimicrobial activity) :: Mycobacteria spp

Entry source: patent US20110039762A1
